Molecular target: full length human wildtype Btk (Homo sapiens)
Sequence (Q06187 whole entry): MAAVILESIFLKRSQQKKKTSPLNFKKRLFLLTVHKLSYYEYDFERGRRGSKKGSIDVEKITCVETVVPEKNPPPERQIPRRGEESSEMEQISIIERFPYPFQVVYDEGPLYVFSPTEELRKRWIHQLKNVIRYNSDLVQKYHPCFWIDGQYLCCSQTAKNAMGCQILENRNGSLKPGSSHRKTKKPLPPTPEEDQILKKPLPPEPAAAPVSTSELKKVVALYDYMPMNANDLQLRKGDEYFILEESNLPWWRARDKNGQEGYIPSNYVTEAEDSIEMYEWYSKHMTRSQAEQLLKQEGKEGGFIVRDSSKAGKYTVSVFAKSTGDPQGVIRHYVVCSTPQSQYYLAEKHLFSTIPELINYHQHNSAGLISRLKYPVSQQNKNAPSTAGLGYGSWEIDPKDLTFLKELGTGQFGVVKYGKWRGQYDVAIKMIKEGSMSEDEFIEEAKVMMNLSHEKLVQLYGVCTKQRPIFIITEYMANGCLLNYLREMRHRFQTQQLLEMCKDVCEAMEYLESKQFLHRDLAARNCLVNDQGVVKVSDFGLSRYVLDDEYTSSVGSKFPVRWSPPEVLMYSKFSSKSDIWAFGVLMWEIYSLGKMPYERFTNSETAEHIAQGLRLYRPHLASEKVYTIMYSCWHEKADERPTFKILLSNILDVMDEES
pIC50: −log10 of the molar value.
Threshold check on pIC50: at or above 8 gives Yes, strictly below gives No.

1) Cc1cc(Nc2cc(-c3ccc(F)c(N4Cc5cc(C(C)(C)C)sc5C4=O)n3)n[nH]c2=O)nn1C
No
2) Cc1c(-c2cc(Nc3cc(C)n(C)n3)c(=O)[nH]n2)cccc1N1Cc2cc(C(C)(C)C)sc2C1=O
Yes

QUERY: Threshold query (pIC50 >= 8) on Cc1c(-c2cc(Nc3nc4c(s3)CNCC4)c(=O)[nH]n2)cccc1N1Cc2cc(C(C)(C)C)sc2C1=O
RESULT: No

QUERY: Threshold query (pIC50 >= 8) on CC(C)(C)c1cc2c(s1)C(=O)N(c1nc(-c3cc(Nc4cc(C5CC5)[nH]n4)c(=O)[nH]n3)ccc1F)C2
RESULT: No

QUERY: Threshold query (pIC50 >= 8) on Cc1cc(Nc2cc(-c3cccc(N4Cc5cc(C(C)(C)C)sc5C4=O)c3C)n[nH]c2=O)no1
RESULT: No

QUERY: Threshold query (pIC50 >= 8) on Cc1c(-c2cc(Nc3cc(C4CC4)[nH]n3)c(=O)[nH]n2)cccc1N1Cc2cc(C(C)(C)C)sc2C1=O
RESULT: Yes

QUERY: Threshold query (pIC50 >= 8) on Cc1c(-c2cc(Nc3cc(CN4CC(F)(F)C4)n(C)n3)c(=O)[nH]n2)cccc1N1Cc2cc(C(C)(C)C)sc2C1=O
RESULT: Yes

QUERY: Threshold query (pIC50 >= 8) on CN1CCn2nc(Nc3cc(-c4cccc(N5Cc6cc(C(C)(C)C)sc6C5=O)c4CO)nn(C)c3=O)cc2C1
RESULT: No
